# TARGET_UNDER_TEST: hCK1ε (Homo sapiens, UniProt P49674)
# Sequence (P49674 whole entry): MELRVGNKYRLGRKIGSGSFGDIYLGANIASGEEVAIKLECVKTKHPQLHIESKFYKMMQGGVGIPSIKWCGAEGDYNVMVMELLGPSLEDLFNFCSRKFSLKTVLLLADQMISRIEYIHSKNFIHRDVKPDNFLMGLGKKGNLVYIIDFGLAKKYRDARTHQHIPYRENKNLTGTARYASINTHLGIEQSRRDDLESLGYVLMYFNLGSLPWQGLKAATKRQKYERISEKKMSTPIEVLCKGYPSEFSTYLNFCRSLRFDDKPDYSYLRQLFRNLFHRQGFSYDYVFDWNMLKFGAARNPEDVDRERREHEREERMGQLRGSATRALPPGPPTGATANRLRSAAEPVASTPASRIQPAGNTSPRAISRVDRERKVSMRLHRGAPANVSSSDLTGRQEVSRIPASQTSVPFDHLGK
# METHOD: hCK1ε assay (33P-ATP, casein-coated plates)
# Assay type: biochemical
# MEASUREMENT_SETUP: 0.4 μM cold ATP, 37° C., one hour
READOUT_NAME: IC50 (µM)

[[record]]
compound = "OCC(O)C(O)C(O)C(O)C(O)c1cc2c3ccc4cccc(O)c4c3oc2c2c(O)cccc12 (stereo not shown) [Compound II]"
observed = 2.9

